target: JAK1 (Homo sapiens); construct: endogenous in cells; host or cells: MHH-CALL-4; assay: Western blot assay, JAK1 protein degradation; assay type: cell-based; conditions: MHH-CALL-4 cells, vehicle control = 100%
Sequence (P23458 whole entry): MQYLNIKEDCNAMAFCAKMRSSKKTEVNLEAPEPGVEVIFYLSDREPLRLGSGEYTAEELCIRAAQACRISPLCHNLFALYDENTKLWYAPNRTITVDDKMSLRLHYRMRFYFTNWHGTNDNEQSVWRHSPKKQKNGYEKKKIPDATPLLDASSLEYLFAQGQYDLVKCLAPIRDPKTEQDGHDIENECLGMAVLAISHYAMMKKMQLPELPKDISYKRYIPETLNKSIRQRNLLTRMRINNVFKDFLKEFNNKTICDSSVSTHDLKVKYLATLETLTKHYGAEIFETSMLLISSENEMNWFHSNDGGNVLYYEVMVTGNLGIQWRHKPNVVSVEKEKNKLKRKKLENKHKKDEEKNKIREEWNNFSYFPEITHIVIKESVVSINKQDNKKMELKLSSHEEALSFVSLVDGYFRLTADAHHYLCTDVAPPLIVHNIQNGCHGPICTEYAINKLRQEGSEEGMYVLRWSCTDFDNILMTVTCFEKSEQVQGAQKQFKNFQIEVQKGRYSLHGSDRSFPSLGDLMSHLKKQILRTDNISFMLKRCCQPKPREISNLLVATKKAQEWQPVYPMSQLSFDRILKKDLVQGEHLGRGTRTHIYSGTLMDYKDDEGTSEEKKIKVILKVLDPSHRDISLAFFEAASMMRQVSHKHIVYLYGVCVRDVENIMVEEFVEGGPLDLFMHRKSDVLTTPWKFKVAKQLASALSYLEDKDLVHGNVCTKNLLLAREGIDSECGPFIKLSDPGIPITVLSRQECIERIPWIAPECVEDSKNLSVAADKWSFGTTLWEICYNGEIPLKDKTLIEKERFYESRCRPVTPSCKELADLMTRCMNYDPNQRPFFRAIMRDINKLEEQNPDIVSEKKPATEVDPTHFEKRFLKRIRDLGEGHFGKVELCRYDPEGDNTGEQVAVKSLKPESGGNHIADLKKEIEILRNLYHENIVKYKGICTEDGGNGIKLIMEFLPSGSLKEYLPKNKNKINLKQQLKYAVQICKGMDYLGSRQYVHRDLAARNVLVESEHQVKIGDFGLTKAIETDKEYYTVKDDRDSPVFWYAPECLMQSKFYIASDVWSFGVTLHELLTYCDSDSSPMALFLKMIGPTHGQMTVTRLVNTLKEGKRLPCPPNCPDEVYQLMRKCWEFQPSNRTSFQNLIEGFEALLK
Measured endpoint: Target Protein Degradation (% remaining at 100 nM, 24 h) JAK1 (% remaining)
Report the figure in % remaining without appending any unit label.

Worked examples, 2 compounds total:
Compound: CCS(=O)(=O)C1CC(CC#N)(n2cc(-c3nc(Nc4ccc(C(=O)NC5CCN(c6cccc7c6C(=O)N(C6CCC(=O)NC6=O)C7=O)CC5)cc4)nc4[nH]ccc34)cn2)C1 (stereo not drawn) [Compound 30]
Test target: JAK1 (Homo sapiens)
Result unit: % remaining
Reported value: 105

Compound: CCS(=O)(=O)N1CC(CC#N)(n2cc(-c3nc(Nc4ccc(C(=O)NCCCCOc5ccc(C6CCC(=O)N(C)C6=O)cc5)cc4)nc4[nH]ccc34)cn2)C1 (stereo not drawn) [Compound 47]
Test target: JAK1 (Homo sapiens)
Result unit: % remaining
Reported value: 114

Proceed to the following item.
Ask: Suppose we examine the compound CCS(=O)(=O)N1CC(CC#N)(n2cc(-c3nc(Nc4ccc(C(=O)NCCCN5CCN(c6ccc(C7CCC(=O)NC7=O)cc6)CC5)cc4)nc4[nH]ccc34)cn2)C1 (stereo not drawn) [Compound 10] ; what Target Protein Degradation (% remaining at 100 nM, 24 h) JAK1 value has been reported?
Result: 86
